- assayedTarget: NPC1-like intracellular cholesterol transporter 1 (Homo sapiens)
- Sequence (Q9UHC9 whole entry): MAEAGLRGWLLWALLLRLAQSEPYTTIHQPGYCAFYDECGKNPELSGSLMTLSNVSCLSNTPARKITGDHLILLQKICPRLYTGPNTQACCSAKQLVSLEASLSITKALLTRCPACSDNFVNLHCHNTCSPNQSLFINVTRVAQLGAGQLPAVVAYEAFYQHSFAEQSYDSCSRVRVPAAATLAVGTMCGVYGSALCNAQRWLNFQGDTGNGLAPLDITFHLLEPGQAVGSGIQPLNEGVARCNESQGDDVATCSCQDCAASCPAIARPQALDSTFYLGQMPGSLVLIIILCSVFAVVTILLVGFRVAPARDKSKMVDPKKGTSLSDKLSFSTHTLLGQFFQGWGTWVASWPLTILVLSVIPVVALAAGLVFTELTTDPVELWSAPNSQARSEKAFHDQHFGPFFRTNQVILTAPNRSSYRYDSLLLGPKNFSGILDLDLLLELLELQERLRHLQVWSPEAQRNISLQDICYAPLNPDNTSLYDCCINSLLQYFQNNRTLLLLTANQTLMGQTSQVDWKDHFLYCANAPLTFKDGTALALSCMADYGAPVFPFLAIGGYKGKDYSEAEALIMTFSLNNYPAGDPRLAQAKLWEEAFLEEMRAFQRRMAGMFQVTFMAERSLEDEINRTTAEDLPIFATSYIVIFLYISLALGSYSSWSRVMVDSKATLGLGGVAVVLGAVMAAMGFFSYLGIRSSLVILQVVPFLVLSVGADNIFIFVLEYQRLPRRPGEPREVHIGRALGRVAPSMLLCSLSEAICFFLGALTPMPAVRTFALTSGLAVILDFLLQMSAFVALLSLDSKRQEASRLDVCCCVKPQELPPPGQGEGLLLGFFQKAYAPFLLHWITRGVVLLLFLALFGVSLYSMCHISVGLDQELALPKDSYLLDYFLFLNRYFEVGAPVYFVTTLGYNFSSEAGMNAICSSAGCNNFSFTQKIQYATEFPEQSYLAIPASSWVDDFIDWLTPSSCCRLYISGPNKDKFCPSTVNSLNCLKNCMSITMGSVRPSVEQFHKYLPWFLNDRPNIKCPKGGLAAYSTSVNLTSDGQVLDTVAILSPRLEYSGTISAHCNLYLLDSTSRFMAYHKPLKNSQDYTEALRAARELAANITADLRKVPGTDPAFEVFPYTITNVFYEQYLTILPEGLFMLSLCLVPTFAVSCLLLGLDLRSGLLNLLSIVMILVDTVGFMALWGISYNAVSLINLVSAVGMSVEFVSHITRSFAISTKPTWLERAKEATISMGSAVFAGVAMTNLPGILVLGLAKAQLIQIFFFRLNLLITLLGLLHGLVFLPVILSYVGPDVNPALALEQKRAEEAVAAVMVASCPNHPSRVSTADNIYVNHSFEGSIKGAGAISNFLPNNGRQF
- method: Displacement of [35S](2S,3S,4S,5R,6S)-6-(4-((2S,3R)-3-((S)-3-(4-fluorophenyl)-3-hydroxypropyl)-1-(4-(3-(methylsulfonamido)prop-1-ynyl)phenyl)-4-oxoazetidin-2-yl)phenoxy)-3,4,5-trihydroxytetrahydro-2H-pyran-2-carboxylic acid from human NCP1L1 expressed in HEK 293
Quick rule for you: IC50 under 4 µM gets Fulfilled, anything else gets Not fulfilled.

compound | categoryLabel
O=C(CN1CN(c2ccccc2)C2(CCN(C(=O)c3ccc(C4CCCCC4)cc3)CC2)C1=O)NCCCCO | Fulfilled
COC(=O)CNC(=O)CN1CN(c2ccccc2)C2(CCN(C(=O)c3ccc(C(C)(C)C)cc3)CC2)C1=O | Not fulfilled
CC(C)(C)OC(=O)NCC1CCCN(C(=O)CN2CN(c3ccccc3)C3(CCN(C(=O)c4ccc(C5CCCCC5)cc4)CC3)C2=O)C1 (stereo unspecified) | Fulfilled
CC(C)(C)c1ccc(C(=O)N2CCC3(CC2)C(=O)N(CC(=O)NCCC(=O)O)CN3c2ccccc2)cc1 | Not fulfilled
O=C(CN1CN(c2ccccc2)C2(CCN(C(=O)c3ccc(C4CCCCC4)cc3)CC2)C1=O)N1CCCCC1 | Fulfilled
CC1CCCN(C(=O)CN2CN(c3ccccc3)C3(CCN(C(=O)c4ccc(C5CCCCC5)cc4)CC3)C2=O)C1 (stereo unspecified) | Fulfilled
CC(C)(C)c1ccc(C(=O)N2CCC3(CC2)C(=O)N(CC(=O)NCCCCCO)CN3c2ccccc2)cc1 | Fulfilled
CC(C)(C)OC(=O)NC1CCCN(C(=O)CN2CN(c3ccccc3)C3(CCN(C(=O)c4ccc(C5CCCCC5)cc4)CC3)C2=O)C1 (stereo unspecified) | Not fulfilled
CC(C)(C)c1ccc(C(=O)N2CCC3(CC2)C(=O)N(CC(=O)N2CCNCC2)CN3c2ccccc2)cc1 | Not fulfilled
CC1(C)CC(OC(=O)CN2CN(c3ccccc3)C3(CCN(C(=O)c4ccc(C(C)(C)C)cc4)CC3)C2=O)CC(C)(C)N1 | Fulfilled
